Below, each entry is listed alongside its reported CC50.
PROCEDURE DETAILS: in vitro
Format: cell-based
CONDITION CONTEXT: ZIKV CC50

COMPOUND | VALUE PREFIX | CC50 / µM
CCn1c2ccccc2c2cc(NC(=O)Nc3ccc([N+](=O)[O-])cc3Cl)ccc21 [Compound 9a] | = | 30.7
COc1ccc(NC(=O)Nc2ccc3c(c2)c2ccccc2n3CCc2ccccc2)c(OC)c1 [Compound 21f] | = | 20
O=C(Nc1ccc(I)cc1)Nc1ccc2c(c1)c1ccccc1n2CCc1ccccc1 [Compound 21d] | = | 100
CCn1c2ccccc2c2cc(NC(=O)Nc3ccc(I)cc3)ccc21 [Compound 9d] | > | 50
CCn1c2ccccc2c2cc(NC(=O)Nc3ccc(C#N)cc3)ccc21 [Compound 9b] | > | 10
CCn1c2ccccc2c2cc(NC(=S)NCc3ccccc3)ccc21 [Compound 11b] | = | 19.6

###

SYSTEM NAME: ZIKV NS5-MTase (Zika virus, UniProt Q32ZE1)
Construct: made in house
Sequence (Q32ZE1 2517-2781): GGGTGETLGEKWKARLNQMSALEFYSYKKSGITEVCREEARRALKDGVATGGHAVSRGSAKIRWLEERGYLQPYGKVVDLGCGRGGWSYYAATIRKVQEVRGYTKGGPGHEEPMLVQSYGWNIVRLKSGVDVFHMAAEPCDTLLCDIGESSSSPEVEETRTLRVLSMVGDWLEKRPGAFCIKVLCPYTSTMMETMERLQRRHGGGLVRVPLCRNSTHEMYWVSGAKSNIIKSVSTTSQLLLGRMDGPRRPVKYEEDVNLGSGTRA
PROCEDURE DETAILS: MTase inhibition assay ([3H]-SAM, GpppAC4 RNA substrate, DEAE filter binding)
Format: biochemical
EXPERIMENTAL ENDPOINT: IC50

MOLECULE | EXPERIMENTAL ENDPOINT | RESULT
O=C(Nc1ccc(I)cc1)Nc1ccc2c(c1)c1ccccc1n2Cc1ccccc1 [Compound 21c] | IC50 | 23 µM
COc1ccc(NC(=O)Nc2ccc3c(c2)c2ccccc2n3CCc2ccccc2)c(OC)c1 [Compound 21f] | IC50 | 26 µM
CCn1c2ccccc2c2cc(NC(=O)Nc3ccc(C#N)cc3)ccc21 | IC50 | ~144 µM
CCn1c2ccccc2c2cc(NC(=O)Nc3ccc(I)cc3)ccc21 | IC50 | ~397 µM
CCn1c2ccccc2c2cc(NC(=O)Nc3ccc([N+](=O)[O-])cc3C)ccc21 | IC50 | 35 µM
Cc1cc([N+](=O)[O-])ccc1NC(=O)Nc1ccc2c(c1)c1ccccc1n2CCc1ccccc1 [Compound 21b] | IC50 | 114 µM
CCn1c2ccccc2c2cc(NC(=O)Nc3ccc([N+](=O)[O-])cc3Cl)ccc21 | IC50 | 46 µM
Nc1ncnc2c1ncn2[C@@H]1O[C@H](C[C@@H](N)CC[C@H](N)C(=O)O)[C@@H](O)[C@H]1O [Sinefungin, reference compound] | IC50 | 1.18 µM
CCn1c2ccccc2c2cc(NC(=S)NCc3ccccc3)ccc21 [Compound 11b] | IC50 | 70 µM
COc1ccc(NC(=O)Nc2ccc3c(c2)c2ccccc2n3Cc2ccccc2)c(OC)c1 [Compound 21e] | IC50 | 48 µM

###

PROCEDURE DETAILS: in vitro
Format: cell-based
EXPERIMENTAL ENDPOINT: CC50 (µM)

LINE NOTATION | EXPERIMENTAL ENDPOINT | RESULT
CCn1c2ccccc2c2cc(NC(=O)Nc3ccc(N)cc3C)ccc21 | CC50 | 20

###

In this section we review reported inhibition at 50 µM values for a set of compounds.
SYSTEM NAME: ZIKV NS5-MTase (Zika virus)
Construct: made in house
PROCEDURE DETAILS: MTase inhibition assay ([3H]-SAM, GpppAC4 RNA substrate, DEAE filter binding)
Assay type: biochemical
CONDITION CONTEXT: initial screen, compounds at 50 μM, 30 min at 30 °C
EXPERIMENTAL ENDPOINT: inhibition at 50 µM

COMPOUND | RESULT
Cc1cc([N+](=O)[O-])ccc1NC(=O)Nc1ccc2c(c1)c1ccccc1n2CCc1ccccc1 [Compound 21b] | > 30%
CCn1c2ccccc2c2cc(NC(=O)Nc3ccc([N+](=O)[O-])cc3Cl)ccc21 [Compound 9a] | > 30%
CCn1c2ccccc2c2cc(NC(=O)Nc3ccc([N+](=O)[O-])cc3C)ccc21 [Compound 6] | > 30%
O=C(Nc1ccc(I)cc1)Nc1ccc2c(c1)c1ccccc1n2Cc1ccccc1 [Compound 21c] | > 30%
CCn1c2ccccc2c2cc(NC(=O)Nc3ccc(N)cc3C)ccc21 [Compound 15] | 25%
CCn1c2ccccc2c2cc(NC(=O)Nc3ccc(I)cc3)ccc21 [Compound 9d] | > 30%

###

Measurement record for hRNMT (human N7-MTase) (Homo sapiens, UniProt O43148); quantity recorded: pIC50.
pIC50: −log10 of the molar value.

COMPOUND | SYSTEM NAME | pIC50
CCn1c2ccccc2c2cc(NC(=O)Nc3ccc(C#N)cc3)ccc21 | hRNMT (human N7-MTase) (Homo sapiens, UniProt O43148) | ~3.60
CCn1c2ccccc2c2cc(NC(=S)NCc3ccccc3)ccc21 [Compound 11b] | hRNMT (human N7-MTase) (Homo sapiens, UniProt O43148) | ~3.95
CCn1c2ccccc2c2cc(NC(=O)Nc3ccc([N+](=O)[O-])cc3Cl)ccc21 | hRNMT (human N7-MTase) (Homo sapiens, UniProt O43148) | ~3.91
